B1: library; numbered along this chain (parent)
chain: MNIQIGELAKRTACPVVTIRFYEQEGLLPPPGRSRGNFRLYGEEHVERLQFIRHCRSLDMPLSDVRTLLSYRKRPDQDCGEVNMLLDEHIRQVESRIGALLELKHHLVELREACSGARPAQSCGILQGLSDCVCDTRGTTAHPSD

Variants of: B1
Assay: sfGFP reporter fluorescence (15 h) (µM FITC); higher = stronger transcriptional activation
Conditions: library round: Round 0; ligand: 30 µM Zn
Think of 0.06 as a floor: if sfGFP reporter fluorescence stands on it or above, it is Fulfilled; beneath it, Not fulfilled.

// known answers, use as guide
{"mutation_code": "D131P", "class_name": "Fulfilled"}
{"mutation_code": "K73A", "class_name": "Fulfilled"}
{"mutation_code": "E109T", "class_name": "Fulfilled"}
{"mutation_code": "I125D", "class_name": "Not fulfilled"}

Q: Does sfGFP reporter fluorescence meet or surpass 0.06 for H89L ?
A: Fulfilled

Q: Does sfGFP reporter fluorescence meet or surpass 0.06 for Y41F ?
A: Fulfilled

Q: Does sfGFP reporter fluorescence meet or surpass 0.06 for G36H ?
A: Fulfilled
